Test: Human intestinal absorption in po dosed human
Conditions: in vivo
Fa values for the compounds below.
# output: numeric value plus its unit

| Compound | Measurement Label | Recorded Result |
| --- | --- | --- |
| N[C@@H]1CON=C1O | Fa | 73% |
| O=C1O[C@H]([C@@H](O)CO)C(O)=C1O | Fa | 35% |
| NC(=O)c1ncn([C@@H]2O[C@H](CO)[C@@H](O)[C@H]2O)n1 | Fa | 33% |
| COc1cccc(C(=O)CCN[C@@H](C)[C@H](O)c2ccccc2)c1 | Fa | 84% |
| NCC1(CC(=O)O)CCCCC1 | Fa | 59% |

# evaluate next
// recorded Fa for CNS(=O)(=O)Cc1ccc2[nH]cc(CCN(C)C)c2c1 : 57%

---

Experiment: Human intestinal absorption in po dosed human
Conditions: in vivo
Measurement Label: Fa (%)
# output: bare number, implied unit %

| Compound | Recorded Result |
| --- | --- |
| CCC[C@@H]1C[C@@H](C(=O)N[C@@H]([C@H]2O[C@H](SC)[C@H](O)[C@@H](O)[C@H]2O)[C@@H](C)O)N(C)C1 [LINCOMYCIN] | 28 |

// recorded Fa for CC(=O)Oc1ccccc1C(=O)O [ASPIRIN] : 82

// recorded Fa for CCCc1cc(=O)[nH]c(=S)[nH]1 [PROPYLTHIOURACIL] : 76

// recorded Fa for O=C(NCC1CCCCN1)c1cc(OCC(F)(F)F)ccc1OCC(F)(F)F (stereo not given) [FLECAINIDE] : 81

// recorded Fa for NC(=O)OCC(COC(N)=O)c1ccccc1 [FELBAMATE] : 90

// recorded Fa for CC(C)NCC(O)c1cc(O)cc(O)c1 (stereo not given) [METAPROTERENOL] : 44

// recorded Fa for CC1(C)O[C@@H]2[C@@H](CO[C@@]3(COS(N)(=O)=O)OC(C)(C)O[C@@H]23)O1 [TOPIRAMATE] : 86

// recorded Fa for NNC(=O)c1ccncc1 [ISONIAZID] : 80

// recorded Fa for C=C[C@H]1C[N@@]2CC[C@H]1C[C@@H]2[C@@H](O)c1ccnc2ccc(OC)cc12 [QUINIDINE] : 81

// recorded Fa for CN(C)C(=O)OC1N=C(c2ccccc2)c2cc(Cl)ccc2N(C)C1=O (stereo not given) [CAMAZEPAM] : 100

---

Assay: Human intestinal absorption in po dosed human
Details: in vivo
Fa values for the compounds below.
# output: bare number, implied unit %

| Compound | Measurement Label | Recorded Result |
| --- | --- | --- |
| N[C@H](Cc1ccccc1)C(=O)N1CCC[C@H]1C(=O)O | Fa | 100 |

# evaluate next
// recorded Fa for CCc1[nH]c(=O)[nH]c1C(=O)c1ccncc1 : 80

---

Test: Human intestinal absorption in po dosed human
Conditions: in vivo
Fa values for the compounds below.
# output: bare number, implied unit %

Check out these entries, answers already filled in.
| Compound | Recorded Result |
| --- | --- |
| Cc1cccc(Nc2ccncc2S(=O)(=O)NC(=O)NC(C)C)c1 [TORSEMIDE] | 96 |
| COc1ccc(CCN(C)CCCC(C#N)(c2ccc(OC)c(OC)c2)C(C)C)cc1OC (centres undefined) | 97 |
| Cn1c(=O)c2c(ncn2C)n(C)c1=O | 100 |
| N[C@@H](C(=O)N[C@@H]1C(=O)N2C(C(=O)O)=C(Cl)CC[C@H]12)c1ccccc1 [LORACARBEF ANHYDROUS] | 100 |
| CC1(C)S[C@@H]2[C@H](NC(=O)COc3ccccc3)C(=O)N2[C@H]1C(=O)O | 59 |
| C[C@H](N[C@@H](CCc1ccccc1)C(=O)O)C(=O)N1CCC[C@H]1C(=O)O [ENALAPRILAT ANHYDROUS] | 25 |
| CC#Cc1cn([C@@H]2O[C@H](CO)[C@@H](O)[C@@H]2O)c(=O)[nH]c1=O | 28 |
| Cc1cnc(NC(=O)C2=C(O)c3ccccc3S(=O)(=O)N2C)s1 | 90 |

// recorded Fa for O=c1[nH]c(=O)n([C@@H]2O[C@H](CO)[C@@H](O)[C@@H]2O)cc1/C=C/Br : 82

// recorded Fa for O=C1NS(=O)(=O)c2ccccc21 : 88

// recorded Fa for CC(C)NCC(O)COc1cccc2[nH]ccc12 (centres undefined) : 87

// recorded Fa for CN1C2CCCC1CC(NC(=O)c1nn(C)c3ccccc13)C2 (centres undefined) : 100

// recorded Fa for CC(C)NCC(O)c1ccc(NS(C)(=O)=O)cc1 (centres undefined) : 95
